# System: HepG2-CANX-COX4
# Test summary: lowest phenotypically active concentration; higher = less potent
# Measurement context: treatment time: 24 h
Catalogue of compounds with associated lowest phenotypically active concentration
The figure you give is taken to be in µM; do not add the unit.

Here is how some compounds turned out for lowest phenotypically active concentration.
// fetch lowest phenotypically active concentration given entry `COc1ccc(CCc2nc3cc(-c4c(C)noc4C)ccc3n2C[C@H](C)N2CCOCC2)cc1Cl`
9

// fetch lowest phenotypically active concentration given entry N#CC[C@@H](C1CCCC1)n1cc(-c2ncnc3[nH]ccc23)cn1 [ruxolitinib-(S)]
9

// fetch lowest phenotypically active concentration given entry `C[C@H](NC(=O)[C@@H](O)c1cc(F)cc(F)c1)C(=O)N[C@@H]1C(=O)N(C)c2ccccc2-c2ccccc21`
1

// fetch lowest phenotypically active concentration given entry CCOC(=O)c1c(CSc2ccccc2)n(C)c2cc(Br)c(O)c(CN(C)C)c12 [arbidol]
9

// fetch lowest phenotypically active concentration given entry Cc1ccc(NC(=O)c2ccc(CN3CCN(C)CC3)cc2)cc1Nc1nc(-c2cccnc2)cs1 [masitinib]
3

// fetch lowest phenotypically active concentration given entry O=C1Cc2c([nH]c3ccc(Br)cc23)-c2ccccc2N1 [Kenpaullone]
1

// fetch lowest phenotypically active concentration given entry COc1cc(C[C@H]2C(=O)OC[C@@H]2Cc2ccc(OC)c(OC)c2)ccc1O [Arctigenin]
9

// fetch lowest phenotypically active concentration given entry `O=C(NCCN1CCC(n2c(=O)[nH]c3ccccc32)CC1)c1cc2cc(F)ccc2[nH]1`
9

// fetch lowest phenotypically active concentration given entry `Cc1nc(NC(=O)N2CCC[C@H]2C(N)=O)sc1-c1csc(C(C)(C)C)n1`
3

// fetch lowest phenotypically active concentration given entry `COc1ccc(Cl)cc1NC(=O)Nc1cc(C)nc2ccccc12`
1

Next:
// fetch lowest phenotypically active concentration given entry CC(=O)O[C@@H]1C[C@H]2C(C)(C)C(=O)C=C[C@]2(C)[C@H]2CC[C@@]3(C)[C@H](c4ccoc4)OC(=O)[C@H]4O[C@]43[C@@]21C [gedunin]
1

// fetch lowest phenotypically active concentration given entry `Cc1ccc(-n2sc3ccccc3c2=O)cc1`
9

// fetch lowest phenotypically active concentration given entry Cc1c(O)cccc1C(=O)N[C@@H](CSc1ccccc1)[C@H](O)CN1C[C@H]2CCCC[C@H]2C[C@H]1C(=O)NC(C)(C)C [nelfinavir]
3

// fetch lowest phenotypically active concentration given entry `O=C(O)[C@]1(Cc2cccc(Nc3nccs3)n2)CC[C@@H](Oc2cccc(Cl)c2F)CC1`
1

// fetch lowest phenotypically active concentration given entry O=C(CCCCCCC(=O)Nc1cccnc1)NO [Pyroxamide]
3

====

# Tested on: WPMY1-CANX-COX4
# Test summary: phenotypically active (imaging signature differs from DMSO and reproducible) at any of 0.3-9 uM (binary (1 = active, 0 = inactive)); higher = active
# Measurement context: treatment time: 24 h
Structures can show the parent of a compound that is named as a salt.
Value type: phenotypically active

Here is how some compounds turned out for phenotypically active.
// fetch phenotypically active given entry O=C([C@@H](Cc1cccc(C(F)(F)F)c1)NS(=O)(=O)c1cc(F)c2c(c1)CCNC2)N1CCCC1 [(R)-PFI 2 hydrochloride]
0 (inactive)

// fetch phenotypically active given entry `CN/C(=C/[N+](=O)[O-])NCCSCc1csc(CN(C)C)n1`
0 (inactive)

// fetch phenotypically active given entry `CC[C@H](C)[C@H](NC(=O)OCc1ccccc1)C(=O)N[C@@H](CCC(=O)OC(C)(C)C)C(=O)N[C@@H](C)C(=O)N[C@H](C=O)CC(C)C`
1 (active)

Next:
// fetch phenotypically active given entry `CC(=O)S[C@@H]1CC2=CC(=O)CC[C@]2(C)[C@H]2CC[C@@]3(C)[C@@H](CC[C@@]34CCC(=O)O4)[C@H]12`
0 (inactive)
